tested on: HIV/VSV-G pseudotype virus; assay: microbe, parasite or virus in culture; format: cell-based, vesicular stomatitis virus; conditions: Human immunodeficiency virus 1, HEK-293T; read-out: Inhibition of pseudotype virus at 25 μM in 293T cells (%) HIV/VSV-GP
// false (0) strictly below 20% in inhibition at 25 µM; true (1) otherwise

Cc1ccc(N(c2ccc(C)cc2)c2cccnc2)cc1 [H]
true (1)
CCCN(C)c1c([N+](=O)[O-])cc([N+](=O)[O-])c2cccnc12 [A]
true (1)
O=c1c2ccccc2nc(/C=C/c2ccc([N+](=O)[O-])o2)n1-c1cccc(C(F)(F)F)c1 [D]
false (0)
O=C(Nc1ccc(Cl)c(Cl)c1)c1ccc([N+](=O)[O-])o1 [E]
true (1)
COc1cccc(C(CC(=O)c2ccc(Cl)cc2)C(C#N)C#N)c1 (stereo not shown) [B]
false (0)

Could you now look at the following molecule, please?
Req: Is it the case that CC[C@@]1(O)C(=O)OCc2c1cc1n(c2=O)Cc2cc3ccccc3nc2-1 [C] has inhibition at 25 µM reaching or exceeding 20%?
Resp: false (0)
